# target_of_assay: isolated recombinant SARS-CoV-2 M^pro (Severe acute respiratory syndrome coronavirus 2)
# assay_protocol: SPE-MS SARS-CoV-2 Mpro inhibition assay
# Assay type: biochemical
# test_conditions: SPE-MS; SARS-CoV-2 M^pro 0.05 μM, substrate peptide 2.0 μM; mean ± SD of two independent runs (n = 2); read-out: IC50
pIC50: −log10 of the molar value.

- molecule: "CS(=O)(=O)N1C(=O)C(CCC#N)c2ccsc21 (racemic) [16e]"
  target_of_assay: "isolated recombinant SARS-CoV-2 M^pro (Severe acute respiratory syndrome coronavirus 2)"
  pIC50: "~5.57"
- molecule: "CS(=O)(=O)N1C(=O)Cc2ccccc21"
  target_of_assay: "isolated recombinant SARS-CoV-2 M^pro (Severe acute respiratory syndrome coronavirus 2)"
  pIC50: "< 4.00"
- molecule: "CC(C)C1C(=O)N(S(C)(=O)=O)c2sccc21 (racemic) [16c]"
  target_of_assay: "isolated recombinant SARS-CoV-2 M^pro (Severe acute respiratory syndrome coronavirus 2)"
  pIC50: "~4.80"
- molecule: "C=CCC1C(=O)N(S(C)(=O)=O)c2sccc21 (racemic) [16f]"
  target_of_assay: "isolated recombinant SARS-CoV-2 M^pro (Severe acute respiratory syndrome coronavirus 2)"
  pIC50: "~5.46"
- molecule: "CC(=O)N1C(=O)Cc2ccsc21"
  target_of_assay: "isolated recombinant SARS-CoV-2 M^pro (Severe acute respiratory syndrome coronavirus 2)"
  pIC50: "< 4.00"
- molecule: "CC1(C)C(=O)N(S(C)(=O)=O)c2sccc21"
  target_of_assay: "isolated recombinant SARS-CoV-2 M^pro (Severe acute respiratory syndrome coronavirus 2)"
  pIC50: "< 4.00"
- molecule: "CS(=O)(=O)N1C(=O)C(Cc2ccccc2)c2ccsc21 (racemic) [16d]"
  target_of_assay: "isolated recombinant SARS-CoV-2 M^pro (Severe acute respiratory syndrome coronavirus 2)"
  pIC50: "~5.40"
- molecule: "O=C1Cc2ccsc2N1S(=O)(=O)c1ccc(C(F)(F)F)cc1 [23f]"
  target_of_assay: "isolated recombinant SARS-CoV-2 M^pro (Severe acute respiratory syndrome coronavirus 2)"
  pIC50: "~5.89"
- molecule: "CS(=O)(=O)N1C(=O)Cc2ccsc21 [compound 7]"
  target_of_assay: "isolated recombinant SARS-CoV-2 M^pro (Severe acute respiratory syndrome coronavirus 2)"
  pIC50: "~5.07"
- molecule: "CS(=O)(=O)N1C(=O)C2(CC=CC2)c2sccc21"
  target_of_assay: "isolated recombinant SARS-CoV-2 M^pro (Severe acute respiratory syndrome coronavirus 2)"
  pIC50: "< 4.00"
- molecule: "CS(=O)(=O)N1C(=O)Cc2cscc21"
  target_of_assay: "isolated recombinant SARS-CoV-2 M^pro (Severe acute respiratory syndrome coronavirus 2)"
  pIC50: "< 4.00"
- molecule: "CS(=O)(=O)n1c(=O)n(S(C)(=O)=O)c2cscc21"
  target_of_assay: "isolated recombinant SARS-CoV-2 M^pro (Severe acute respiratory syndrome coronavirus 2)"
  pIC50: "< 4.00"
